B1: FBXO39 (parent)
chain: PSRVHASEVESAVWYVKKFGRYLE

variants of: B1; assay: protein stability index of a GFP-peptide fusion (GPS, HEK-293T) (PSI 1-6); higher = more stable; settings: c terminus: a fixed tail appended;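 further: lentivirally expressed fusions sorted by FACS into six bins by GFP to DsRed ratio, PSI derived from sequencing read proportions per bin multiplied by bin number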
observable: protein stability index
Response field accepts a number only; no unit should be typed.

The cases that follow already have their protein stability index on record.
PSRVHASEVESAVWYVKKFGRYLN [E24N]; 2.06
PSRVHASEVESAVWYVKKFHRYLE [G20H]; 1.62
PSRVHASEVETAVWYVKKFGRYLE [S11T]; 2.03
PSRVHASEVESIVWYVKKFGRYLE [A12I]; 2.34
PSRVHISEVESAVWYVKKFGRYLE [A6I]; 2.06
PSRVHASEVESAVWIVKKFGRYLE [Y15I]; 1.58
PSRVHASEVESAVWYVKKFGRSLE [Y22S]; 2.58
PSRVHASEVESAVWYVKKFSRYLE [G20S]; 2.04
PSRVHASEVFSAVWYVKKFGRYLE [E10F]; 2.31
PSRVHASEVESAVWYVMKFGRYLE [K17M]; 1.91

Problem: Any idea what its protein stability index is? The variant is PSRVHASEVESAVWYLKKFGRYLE [V16L]
Result: 1.87

Problem: Quick one: PSRVHASEVESAVWYVKKFNRYLE [G20N]
Result: 2.38

Values were extracted from the supplement of paper PMC10567573.
